- Assay text: In vitro cytotoxicity with L-6 cells (Alamar Blue)
- Assay type: cell-based
- Condition context: L-6 cells (rat skeletal myoblasts), 70 h + 2 h Alamar Blue; read-out: Cytotoxicity L6 IC50
Measured quantity: IC50 at 72 h

Prompt line: For COc1cc([C@@H]2c3cc4c(cc3[C@H](O)[C@H]3COC(=O)[C@H]23)OCO4)cc(OC)c1OC [Podophyllotoxin, reference compound] , what is its reported IC50 at 72 h?
Response line: 6 ng/mL

---

Would you kindly list CC50 at 72 h for each of these compounds?
- Assay text: In vitro cytotoxicity with L-6 cells (Alamar Blue)
- Assay type: cell-based
- Condition context: L-6 cells (rat skeletal myoblasts), 70 h + 2 h Alamar Blue; read-out: Cytotoxicity L6 IC50
Give the number; µg/mL is assumed, so skip it.

Prompt line: I have this compound here, CC(C)(C)C(=O)N(O)c1ccc(C#N)cc1 [Compound 15a] , and I need its recorded CC50 at 72 h.
Response line: 33.5

Prompt line: Fill in: CC50 at 72 h of N=C(N)c1ccc(N)cc1 [Compound 13c] is ___
Response line: 42.9

Prompt line: For the compound "N=C(NO)c1ccc(C(=O)NO)cc1" , what CC50 at 72 h is on record?
Response line: 56.1

Prompt line: Need CC50 at 72 h of "Nc1ccc(C(=O)NO)cc1" , thanks.
Response line: 43.4

Prompt line: Query (compound): CC(=O)N(O)c1ccc(C(=N)NO)cc1 [Compound 10c] ; field requested: CC50 at 72 h
Response line: 52.2

Prompt line: Bench note: what CC50 at 72 h did "N=C(NO)c1ccc(NC(=S)NOCc2ccccc2)cc1" show?
Response line: 57.6

Prompt line: // returns reported CC50 at 72 h for input N#Cc1nc(-c2ccco2)c[n+]([O-])c1N [Compound 16b]
Response line: 61.1

Prompt line: Query (compound): "O=C(NO)NC1CCCCC1" ; field requested: CC50 at 72 h
Response line: 93

Prompt line: // returns reported CC50 at 72 h for input "N=C(NO)c1ccc(NC(=O)NOCc2ccccc2)cc1"
Response line: 43

Attribution: patent EP4070856A1
